molecular target: JAK 3 (Homo sapiens); assay: Biochemical potency on JAK3, TR-FRET LANCE Ultra kinase assay (examples 1-99); conditions: ATP at Km (0.2 μM), read-out: JAK3 inhibitory activity (pIC50 class) (converted)
Assay endpoint: IC50

NCc1nn(-c2cc(Cl)ccc2OC(F)F)c2cc(-c3cnn4cccnc34)ncc12 [Example 32] : 5.01 to 50.1 nM
CCCS(=O)(=O)c1ccc(OC)c(-n2nc(C)c3cnc(-c4cnn5cccnc45)cc32)c1 [Example 10] : ≤ 5.01 nM
CNC(=O)c1nn(-c2cc(Cl)ccc2OC(F)F)c2cc(-c3cnn4cccnc34)ncc12 [Example 33] : ≤ 5.01 nM

--- query ---
INPUT: Param item = COc1ccc(Cl)cc1-n1ncc2c(NCCNC(C)=O)nc(-c3cnn4cccnc34)cc21 [Example 53] ; retrieve measured IC50.
OUTPUT: > 50.1 nM

* * *

target: UniProt P29597; experiment: Biochemical potency on Tyk2, TR-FRET LANCE Ultra kinase assay (examples 1-99); settings: ATP at Km (12 μM), read-out: Tyk2 inhibitory activity (pIC50 class) (converted)
Sequence (P29597 whole entry): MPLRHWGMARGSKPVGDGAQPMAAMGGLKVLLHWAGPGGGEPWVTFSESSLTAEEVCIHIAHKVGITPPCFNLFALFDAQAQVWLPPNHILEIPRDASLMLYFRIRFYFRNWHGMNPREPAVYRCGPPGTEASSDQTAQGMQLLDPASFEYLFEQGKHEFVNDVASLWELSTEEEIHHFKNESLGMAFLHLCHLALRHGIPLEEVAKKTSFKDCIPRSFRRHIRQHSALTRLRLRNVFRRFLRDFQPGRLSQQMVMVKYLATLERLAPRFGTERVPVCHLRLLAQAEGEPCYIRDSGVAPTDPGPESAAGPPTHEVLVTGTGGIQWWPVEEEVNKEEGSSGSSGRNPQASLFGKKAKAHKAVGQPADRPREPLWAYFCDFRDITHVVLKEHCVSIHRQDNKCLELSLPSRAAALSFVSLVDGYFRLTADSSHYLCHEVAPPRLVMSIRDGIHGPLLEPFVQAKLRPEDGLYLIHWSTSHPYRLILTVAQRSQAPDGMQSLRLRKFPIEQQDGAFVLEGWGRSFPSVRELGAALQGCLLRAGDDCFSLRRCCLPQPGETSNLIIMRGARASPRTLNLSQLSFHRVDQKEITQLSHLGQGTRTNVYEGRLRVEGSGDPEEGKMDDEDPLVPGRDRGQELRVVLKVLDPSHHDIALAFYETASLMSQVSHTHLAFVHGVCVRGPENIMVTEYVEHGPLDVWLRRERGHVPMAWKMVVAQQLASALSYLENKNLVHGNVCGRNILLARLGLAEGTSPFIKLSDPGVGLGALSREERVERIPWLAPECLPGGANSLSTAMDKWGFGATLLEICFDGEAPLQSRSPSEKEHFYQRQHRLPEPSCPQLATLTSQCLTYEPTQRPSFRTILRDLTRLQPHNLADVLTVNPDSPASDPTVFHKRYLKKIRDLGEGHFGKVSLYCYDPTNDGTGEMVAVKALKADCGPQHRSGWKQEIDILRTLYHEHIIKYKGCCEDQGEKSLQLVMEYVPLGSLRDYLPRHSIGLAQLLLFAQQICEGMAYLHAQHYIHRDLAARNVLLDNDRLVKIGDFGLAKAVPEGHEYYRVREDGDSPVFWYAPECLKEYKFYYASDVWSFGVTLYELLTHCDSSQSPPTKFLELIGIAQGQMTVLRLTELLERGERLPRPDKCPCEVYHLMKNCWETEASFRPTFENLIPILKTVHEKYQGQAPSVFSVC
Assay endpoint: IC50

OCc1nn(-c2cc(Cl)ccc2OC(F)F)c2cc(-c3cnn4cccnc34)ncc12 [Example 29] : 5.01 to 50.1 nM
COc1ccc(NS(C)(=O)=O)cc1-n1nc(NCCN(C)C)c2cnc(-c3cnn4cccnc34)cc21 [Example 86] : > 50.1 nM
COc1ccc(S(=O)(=O)NCCN2CCOCC2)cc1-n1nc(C)c2cnc(-c3cnn4cccnc34)cc21 [Example 19] : > 50.1 nM
Cc1nn(-c2cc(Cl)ccc2O)c2cc(-c3cnn4cccnc34)ncc12 [Example 12] : 5.01 to 50.1 nM
CNCC(=O)Nc1nn(-c2cc(Cl)ccc2OC)c2cc(-c3cnn4cccnc34)ncc12 [Example 87] : 5.01 to 50.1 nM
COCCS(=O)(=O)c1ccc(OC(F)F)c(-n2nc(C)c3cnc(-c4cnn5cccnc45)cc32)c1 [Example 20] : 5.01 to 50.1 nM

INPUT: Param item = Cc1nn(-c2cc(C(=O)Nc3nccs3)ccc2OC(F)F)c2cc(-c3cnn4cccnc34)ncc12 [Example 66] ; retrieve measured IC50.
OUTPUT: > 50.1 nM

INPUT: Param item = COc1ccc(Cl)cc1-n1nc(NC(C)=O)c2cnc(-c3cnn4cccnc34)cc21 [Example 40] ; retrieve measured IC50.
OUTPUT: 5.01 to 50.1 nM

* * *

Target: JAK 3 (Homo sapiens)
Sequence (P52333 1-1124): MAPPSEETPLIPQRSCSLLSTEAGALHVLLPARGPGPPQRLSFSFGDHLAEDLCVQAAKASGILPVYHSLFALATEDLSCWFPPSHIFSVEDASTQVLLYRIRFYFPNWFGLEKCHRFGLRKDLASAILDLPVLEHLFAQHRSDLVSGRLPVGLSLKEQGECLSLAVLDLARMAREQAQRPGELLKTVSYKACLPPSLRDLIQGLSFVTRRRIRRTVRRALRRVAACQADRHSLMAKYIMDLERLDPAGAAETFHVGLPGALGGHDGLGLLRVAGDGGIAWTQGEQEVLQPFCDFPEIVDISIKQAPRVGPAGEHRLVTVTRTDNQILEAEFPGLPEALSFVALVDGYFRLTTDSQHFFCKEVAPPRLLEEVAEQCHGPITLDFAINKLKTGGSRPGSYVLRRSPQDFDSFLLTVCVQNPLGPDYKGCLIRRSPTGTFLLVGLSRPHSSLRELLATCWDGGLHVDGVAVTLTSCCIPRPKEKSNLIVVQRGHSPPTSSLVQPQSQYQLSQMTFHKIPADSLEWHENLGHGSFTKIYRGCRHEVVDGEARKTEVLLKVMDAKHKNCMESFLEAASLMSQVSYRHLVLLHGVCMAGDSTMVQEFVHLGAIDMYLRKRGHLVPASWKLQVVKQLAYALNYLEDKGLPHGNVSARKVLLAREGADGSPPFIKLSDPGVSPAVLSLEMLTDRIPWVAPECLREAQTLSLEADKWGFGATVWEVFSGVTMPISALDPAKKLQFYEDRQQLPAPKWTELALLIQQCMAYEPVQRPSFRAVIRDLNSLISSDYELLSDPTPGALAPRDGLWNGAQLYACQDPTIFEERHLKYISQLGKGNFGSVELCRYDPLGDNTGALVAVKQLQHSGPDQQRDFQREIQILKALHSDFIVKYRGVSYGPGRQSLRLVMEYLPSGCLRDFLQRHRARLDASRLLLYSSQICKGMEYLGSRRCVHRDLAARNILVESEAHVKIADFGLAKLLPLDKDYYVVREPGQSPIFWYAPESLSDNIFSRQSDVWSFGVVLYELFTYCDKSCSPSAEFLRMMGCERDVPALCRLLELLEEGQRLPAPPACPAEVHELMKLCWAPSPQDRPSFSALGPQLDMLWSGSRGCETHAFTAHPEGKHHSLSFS
Assay: Biochemical potency on JAK3, TR-FRET LANCE Ultra kinase assay (examples 1-99)
Settings: ATP at Km (0.2 μM), read-out: JAK3 inhibitory activity (pIC50 class) (converted)
Known IC50 of a selection of compounds

In the examples that follow, each entry is paired with its recorded IC50.
COc1cccc(S(=O)(=O)c2ccc(OC(F)F)c(-n3nc(C)c4cnc(-c5cnn6cccnc56)cc43)c2)c1 : ≤ 5.01 nM
Cc1nn(-c2cc(SC3CCOCC3)ccc2OC(F)F)c2cc(-c3cnn4cccnc34)ncc12 : ≤ 5.01 nM
COc1ccc(F)cc1-n1nc(C)c2cnc(Nc3ncc[nH]c3=O)cc21 : ≤ 5.01 nM
Cc1nn(-c2cc(Cl)ccc2OC2CC2)c2cc(-c3cnn4cccnc34)ncc12 : ≤ 5.01 nM

INPUT: Param item = "COc1ccc(C(F)F)cc1-n1nc(NCCN(C)C)c2cnc(Nc3ncc[nH]c3=O)cc21" ; retrieve measured IC50.
OUTPUT: 5.01 to 50.1 nM

INPUT: Param item = "COCCS(=O)(=O)c1ccc(OC(F)F)c(-n2nc(C)c3cnc(Nc4ncc[nH]c4=O)cc32)c1" ; retrieve measured IC50.
OUTPUT: ≤ 5.01 nM

INPUT: Param item = "COc1ccc(S(=O)(=O)NCCN2CCOCC2)cc1-n1nc(C)c2cnc(-c3cnn4cccnc34)cc21" ; retrieve measured IC50.
OUTPUT: > 50.1 nM

INPUT: Param item = "Cc1nn(-c2cc(C(=O)Nc3nccs3)ccc2OC(F)F)c2cc(-c3cnn4cccnc34)ncc12" ; retrieve measured IC50.
OUTPUT: ≤ 5.01 nM
